src = ChEMBL document CHEMBL1140317

Experiment Description: Volume of distribution was measured
Format: ADME, organism-based
Condition Info: in vivo; read-out: Volume of distribution

| Test Smiles | Vd / L/kg |
| --- | --- |
| Cc1nc2n(c1C)N=C(c1ccccc1)c1cc3c(cc1C2)OCO3 | 2.7 |

* * *

Target Entity: Glutamate receptor ionotropic, AMPA (Rattus norvegicus, UniProt P19490+P19491+P19492+P19493)
Experiment Description: In vitro inhibition of AMPA receptor mediated currents in primary cultured rat fetal hippocampal neurons
IC50: recorded values
Endpoint Label: IC50 (µM)

| Test Smiles | Unit Abbreviation | Value Operator | Assay Result |
| --- | --- | --- | --- |
| Cc1nc2n(c1C)N=C(c1ccc(Cl)cc1)c1cc3c(cc1C2)OCO3 | µM | = | 10 |
| Brc1nc2n(c1Br)N=C(c1ccccc1)c1cc3c(cc1C2)OCO3 | µM | > | 10 |
| Cc1c(CO)nc2n1N=C(c1ccccc1)c1cc3c(cc1C2)OCO3 | µM | = | 4.6 |
| Cc1nc2n(c1C)N=C(c1ccccc1)c1cc3c(cc1C2)OCO3 | µM | = | 3.4 |
| Cc1nc2n(c1C)N=C(c1ccc(F)cc1)c1cc3c(cc1C2)OCO3 | µM | = | 10 |
| c1ccc(C2=Nn3ccnc3Cc3cc4c(cc32)OCO4)cc1 | µM | = | 6.5 |
| CC1=NN=C(c2ccc(N)cc2)c2cc3c(cc2C1)OCO3 | µM | = | 9 |
| Clc1nc2n(c1Cl)N=C(c1ccccc1)c1cc3c(cc1C2)OCO3 | µM | > | 10 |
